Tested on: Escherichia coli TOP10
Assay: shrunken log2 fold change of peptide-encoding DNA abundance (4.5 h post-induction vs induction); higher = less antimicrobial activity (less host growth inhibition)
Conditions: time post-induction: 4.5 h; library: site-saturation at positions 5, 18, 19, 20
ENDPOINT_NAME: shrunken log2 fold change
Provide a numeric answer; units are not to be included.

Here's what some known entries look like.
[
  {
    "BIOPOLYMER_SEQUENCE": "RRIRMRPPRLPRPRPRPYSAPRP",
    "REPORTED_MEASUREMENT": 0.0186
  },
  {
    "BIOPOLYMER_SEQUENCE": "RRIRLRPPRLPRPRPRPLNWPRP",
    "REPORTED_MEASUREMENT": -0.0552
  },
  {
    "BIOPOLYMER_SEQUENCE": "RRIRMRPPRLPRPRPRPPAKPRP",
    "REPORTED_MEASUREMENT": 1.06
  },
  {
    "BIOPOLYMER_SEQUENCE": "RRIRYRPPRLPRPRPRPAAVPRP",
    "REPORTED_MEASUREMENT": 0.0751
  }
]

Inquiry: Quick one: shrunken log2 fold change of RRIRKRPPRLPRPRPRPTHKPRP ?
Reply text: 0.658

Inquiry: Next sequence up: RRIRDRPPRLPRPRPRPKQIPRP
Reply text: -0.0135

----------
Test system: Escherichia coli TOP10
Assay: shrunken log2 fold change of peptide-encoding DNA abundance (4.5 h post-induction vs induction); higher = less antimicrobial activity (less host growth inhibition)
Conditions: time post-induction: 4.5 h; library: site-saturation at positions 5, 18, 19, 20
As shown below, each of these sequences has a reported shrunken log2 fold change value.
Provide a numeric answer; units are not to be included.

Here's what some known entries look like.
[
  {
    "BIOPOLYMER_SEQUENCE": "RRIRFRPPRLPRPRPRPNKTPRP",
    "shrunken log2 fold change": -0.172
  },
  {
    "BIOPOLYMER_SEQUENCE": "RRIRTRPPRLPRPRPRPHDWPRP",
    "shrunken log2 fold change": 0.213
  }
]

Inquiry: Give shrunken log2 fold change (Escherichia coli TOP10) of the following sequence: RRIRERPPRLPRPRPRPVANPRP
Reply text: -0.068

Inquiry: Next sequence up: RRIRGRPPRLPRPRPRPTTRPRP
Reply text: 0.79

Inquiry: Next sequence up: RRIRIRPPRLPRPRPRPNHTPRP
Reply text: -0.541

Inquiry: Next sequence up: RRIRIRPPRLPRPRPRPLNNPRP
Reply text: -1.15

Inquiry: Next sequence up: RRIRKRPPRLPRPRPRPLIIPRP
Reply text: -0.501

Inquiry: Next sequence up: RRIRRRPPRLPRPRPRPDKAPRP
Reply text: -0.131

Inquiry: Next sequence up: RRIRQRPPRLPRPRPRPYPLPRP
Reply text: -0.73

Inquiry: Next sequence up: RRIRPRPPRLPRPRPRPIEHPRP
Reply text: -0.186

Inquiry: Next sequence up: RRIRQRPPRLPRPRPRPKCNPRP
Reply text: -0.472

----------
As shown below, each of these sequences has a reported shrunken log2 fold change value.
Test system: Escherichia coli TOP10;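 further: peptides expressed intracellularly from a pBAD plasmid library in pooled LB shake-flask culture, induced with 0.3% L-arabinose, DNA abundance read by NGS, three biological replicates, DESeq2 with apeglm shrinkage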
Assay: shrunken log2 fold change of peptide-encoding DNA abundance (4.5 h post-induction vs induction); higher = less antimicrobial activity (less host growth inhibition)
Details: time post-induction: 4.5 h; library: site-saturation at positions 5, 18, 19, 20
Provide a numeric answer; units are not to be included.

Here's what some known entries look like.
[
  {
    "BIOPOLYMER_SEQUENCE": "RRIRVRPPRLPRPRPRPEACPRP",
    "REPORTED_MEASUREMENT": 0.11
  },
  {
    "BIOPOLYMER_SEQUENCE": "RRIRTRPPRLPRPRPRPCWWPRP",
    "REPORTED_MEASUREMENT": 0.636
  },
  {
    "BIOPOLYMER_SEQUENCE": "RRIRDRPPRLPRPRPRPVWSPRP",
    "REPORTED_MEASUREMENT": 0.065
  }
]

Next:
Inquiry: Quick one: shrunken log2 fold change of RRIRSRPPRLPRPRPRPPVVPRP ?
Reply text: 0.473
